# Tested on: 282377-053-R-J1-PDC complex spheroid viability;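 also: spheroids exposed to agents for seven days before readout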
# ASSAY METHOD TEXT: Anticancer human tumor 282377-053-R-J1-PDC patient-derived colon adenocarcinoma cell line growth inhibition [RAS]
# TEST CONDITIONS: curve of first compound; second compound 0.03 µM
RECORDED METRIC: IC50

CCC(CC)c1cc(NC2CCC(N)C2)n2nccc2n1 (centres undefined) + CCn1c(-c2cccnc2C(C)OC)c2c3cc(ccc31)N1CCOC(CC(NC(=O)C(C(C)C)N(C)C(=O)C3(F)CCN(C(=O)C#CC(C)(C)N(C)C)CC3)C(=O)N3CCCC(N3)C(=O)OCC(C)(C)C2)C1 : 1850 nM
C=CC(=O)Nc1cc(Nc2nccc(-c3cn(C)c4ccccc34)n2)c(OC)cc1N(C)CCN(C)C + CCn1c(-c2cccnc2C(C)OC)c2c3cc(ccc31)N1CCOC(CC(NC(=O)C(C(C)C)N(C)C(=O)C3(F)CCN(C(=O)C#CC(C)(C)N(C)C)CC3)C(=O)N3CCCC(N3)C(=O)OCC(C)(C)C2)C1 : > 1000 nM
CCc1c2c(nc3ccc(O)cc13)-c1cc3c(c(=O)n1C2)COC(=O)[C@]3(O)CC + CCn1c(-c2cc(N3CCN(C)CC3)cnc2C(C)OC)c2c3cc(ccc31)-c1csc(n1)CC(NC(=O)C1CC1C)C(=O)N1CCCC(N1)C(=O)OCC(C)(C)C2 : > 300 nM

Okay, next one:
Problem: Recorded IC50 of CCc1c2c(nc3ccc(O)cc13)-c1cc3c(c(=O)n1C2)COC(=O)[C@]3(O)CC + CCn1c(-c2cccnc2C(C)OC)c2c3cc(ccc31)N1CCOC(CC(NC(=O)C(C(C)C)N(C)C(=O)C3(F)CCN(C(=O)C#CC(C)(C)N(C)C)CC3)C(=O)N3CCCC(N3)C(=O)OCC(C)(C)C2)C1 , please.
Solution: > 300 nM

Value source: PubChem BioAssay AID2060905
